- System: soybean (Glycine max Merr.), GLXMA
- EXPERIMENT_SUMMARY: Test Example 2 post-emergence (foliage treatment) herbicidal activity, GLXMA
- Format: in vivo
- ASSAY_CONTEXT: 63 g a.i./ha
Classify by measured growth controlling degree, GLXMA: satisfied if it is equal to or exceeds 60%, not satisfied if it is smaller.

Problem: Item COc1c(Cl)cc(F)c(-c2nn(C)c(OC(F)F)c2Cl)c1N(C(=O)C=C(C)C)C(=O)C=C(C)C [Compound 1-11] with growth controlling degree, GLXMA of 60% or above?
Solution: not satisfied

Problem: Is it the case that COc1c(Cl)cc(F)c(-c2nn(C)c(OC(F)F)c2Cl)c1NC(=O)C=Cc1c(Cl)cccc1Cl [Compound 1-252] has growth controlling degree, GLXMA reaching or exceeding 60%?
Solution: satisfied

Problem: Reported growth controlling degree, GLXMA at or above 60%? COCCOC(=O)Nc1c(OC)c(Cl)cc(F)c1-c1nn(C)c(OC(F)F)c1Cl [Compound 1-61]
Solution: satisfied

Problem: Identify whether the reported growth controlling degree, GLXMA of the following compound is 60% or greater: COc1c(Cl)cc(F)c(-c2nn(C)c(OC(F)F)c2Cl)c1NC(=O)COc1ccc(C#N)cc1 [Compound 1-36]
Solution: not satisfied

Problem: Dear colleague, could you confirm whether COc1c(Cl)cc(F)c(-c2nn(C)c(OC(F)F)c2Cl)c1NC(C)C [Compound 1-59] has growth controlling degree, GLXMA at or above 60%?
Solution: satisfied

Problem: Is reported growth controlling degree, GLXMA greater than or equal to 60% here: COc1c(Cl)cc(F)c(-c2nn(C)c(OC(F)F)c2Cl)c1NC(=O)c1cccc(C)c1 [Compound 1-260]
Solution: satisfied

Problem: Decide: is the reported value of growth controlling degree, GLXMA for Cn1nc(-c2c(F)cc(Cl)c(OC(F)F)c2NC=O)c(Cl)c1OC(F)F [Compound 1-82] equal to or greater than 60%?
Solution: satisfied

Problem: Determine whether measured growth controlling degree, GLXMA meets or exceeds 60% for COc1c(Cl)cc(F)c(-c2nn(C)c(OC(F)F)c2Cl)c1NC(=O)C(C)=Cc1ccccc1 [Compound 1-251]
Solution: not satisfied

Problem: Does growth controlling degree, GLXMA meet or surpass 60% for COc1c(Cl)cc(F)c(-c2nn(C)c(OC(F)F)c2Cl)c1NC(=O)c1ccc(F)cc1F [Compound 1-30] ?
Solution: satisfied

Problem: Can CCCOC(=O)Nc1c(OC)c(Cl)cc(F)c1-c1nn(C)c(OC(F)F)c1Cl [Compound 1-72] be said to have growth controlling degree, GLXMA at or above 60%?
Solution: satisfied

Problem: Answer whether growth controlling degree, GLXMA of COCC(=O)Nc1c(OC)c(Cl)cc(F)c1-c1nn(C)c(OC(F)F)c1Cl [Compound 1-16] is greater than or equal to 60%.
Solution: satisfied

Problem: Would you say COc1c(Cl)cc(F)c(-c2nn(C)c(OC(F)F)c2Cl)c1N(C=O)C1CCCC1 [Compound 1-10] shows growth controlling degree, GLXMA at minimum 60%?
Solution: not satisfied

Problem: Textbook exercise: given the entry C#CCNc1c(OC)c(Cl)cc(F)c1-c1nn(C)c(OC(F)F)c1Cl [Compound 1-53] , state whether its growth controlling degree, GLXMA is greater than or equal to 60%.
Solution: satisfied

From: patent US20050245399A1
